assay: LC/MS of serum sample: time from blood collection to centrifugation (Table J); type: physicochemical, human; conditions: after 6 hours from blood collection to centrifugation; detection intensity relative to 1 at 15 minutes
endpoint: Rate of increase or decrease

Take a look at these entries with their results.
O=C(O)CCC(=O)O [Succinic acid]    1.57
N[C@@H](CS)C(=O)O [Cysteine]    1.39
C[S+]([O-])CC[C@H](N)C(=O)O (stereo partly drawn) [Methionine sulfoxide]    1.65
N=C(N)NCCC[C@H](N)C(=O)O [Arginine]    0.54

A: N=C(N)NCCC[C@H](NC(CC(=O)O)C(=O)O)C(=O)O (stereo partly drawn) [Argininosuccinic acid]
B: N[C@@H](CO)C(=O)O [Serine, serine]
Q: When their Rate of increase or decrease values are compared, which is larger, A or B ? Indicate your choice by writing its label.
A: B
(B: 1.44, A: 0.65)

---

assay: LC/MS of blood plasma sample: time from blood collection to cooling of blood (Table E); format: physicochemical, human; set-up: key: detection intensity relative to ≤1 min to cooling = 1; conditions: detection intensity relative to 1 at 1 minute or less, blood collection to cooling 5 minutes
endpoint: Rate of increase or decrease

Take a look at these entries with their results.
CN(C)C(N)=NCCC[C@H](N)C(=O)O    1.31
C[C@H](CCC(=O)O)[C@H]1CC[C@H]2[C@@H]3[C@H](O)C[C@@H]4C[C@H](O)CC[C@]4(C)[C@H]3C[C@H](O)[C@]12C    1.36

P: N[C@@H](Cc1ccc(O)c(O)c1)C(=O)O
Q: Nc1ncnc2c1ncn2[C@@H]1O[C@H](CO)[C@@H](O)[C@H]1O
Q: When their Rate of increase or decrease values are compared, which is larger, P or Q ? Indicate your choice by writing its label.
A: P
(P: 2.30, Q: 1.52)

---

assay: LC/MS of serum sample: number of times of freezing and thawing (Table M); assay type: physicochemical, human; conditions: serum sample, LC/MS; detection intensity vs 2 times of freezing and thawing
endpoint: Increase or decrease

CSCC[C@H](N)C(=O)O [Methionine, methionine]    Decrease
NCC(=O)O [Glycine]    Decrease
O=C(O)[C@@H]1CCCN1 [Proline]    Decrease
CC(C)(CO)[C@@H](O)C(=O)NCCC(=O)O [Pantothenic acid]    Decrease

---

assay: GC/MS of blood plasma sample: number of times of freezing and thawing (Table C); format: physicochemical, human; settings: detection intensity relative to 1 at 2 times, freezing and thawing 6 times
Where a name gives a salt, the structure may show the parent alone.
endpoint: Rate of increase or decrease

Take a look at these entries with their results.
O=S(=O)(O)Oc1c[nH]c2ccccc12 [Indoxyl sulfate]    0.68
CCCCCCCCCCCCCCCCCC(=O)OCC(O)CO (stereo not drawn) [Monostearin]    0.67
CC(=O)NCCCC[C@H](N)C(=O)O [N6-acetyllysine]    0.57
O=C[C@H](O)[C@@H](O)[C@H](O)CO [Xylose]    0.68
CC(C)CC(O)C(=O)O (stereo not drawn) [2-Hydroxyisocaproic acid]    0.66
O=c1ccn([C@@H]2O[C@H](CO)[C@@H](O)[C@H]2O)c(=O)[nH]1 [Uridine]    0.69

I: O[C@H]1[C@H](O)[C@@H](O)[C@H](O)[C@@H](O)[C@@H]1O [Scyllo-inositol]
II: O=P(O)(O)OCC(O)CO (stereo not drawn) [Glycerol-3-phosphate]
III: OC[C@H]1O[C@H](O[C@H]2O[C@H](CO)[C@@H](O)[C@H](O)[C@H]2O)[C@H](O)[C@@H](O)[C@@H]1O [Trehalose]
Q: Hey, can you sort those molecules up there by Rate of increase or decrease, smallest first? Kindly provide the labels arranged according to the requested ordering.
A: II, I, III
(II: 0.41, I: 0.68, III: 1.98)
